Test system: Saccharomyces cerevisiae
Assay: protein stability index of tFT-peptide fusion (C-terminal peptide) (PSI (0-1 scale)); higher = more stable (slower turnover)
Settings: genetic background: das1 deletion; temperature: 30 C

| input_sequence | protein stability index |
| --- | --- |
| ITGLKNNIQKCS [YER068C-A C-terminal 12 aa] | 0.688 |
| FRGKLFLDSITD [MLC2 C-terminal 12 aa] | 0.724 |
| HPTSAEELVTMR [GLR1 C-terminal 12 aa] | 0.718 |
| FRNYRGHYRGRK [SGS1 C-terminal 12 aa] | 0.705 |
| VVGEDEKDDFFE [EFG1 C-terminal 12 aa] | 0.721 |
| SSSSFISYPPQR [MAD3 C-terminal 12 aa] | 0.728 |
| AIWIFYIDFRVH [YCL021W-A C-terminal 12 aa] | 0.227 |
| RLLNLQKVIYST [LDB18 C-terminal 12 aa] | 0.662 |
| LDTLQTASQYLP [VID22 C-terminal 12 aa] | 0.706 |
| LAQQLQQDSEAS [SWC5 C-terminal 12 aa] | 0.699 |
| STGSETKIADCR [HSM3 C-terminal 12 aa] | 0.683 |
| YSSDSSTLHSKV [FIG1 C-terminal 12 aa] | 0.7 |
| FLVLKIIKALLW [MTC4 C-terminal 12 aa] | 0.526 |
| VGENNYYAESII [COS111 C-terminal 12 aa] | 0.714 |
| ILWLKLEKRIEN [YLR339C C-terminal 12 aa] | 0.711 |
| RYNDERLGPVQG [IRC24 C-terminal 12 aa] | 0.696 |
| GMLYALYIVLQD [PMP3 C-terminal 12 aa] | 0.301 |
| WFICRMLSKVTL [YNR003W-A C-terminal 12 aa] | 0.609 |
| SASGKKKINKNN [ELO1 C-terminal 12 aa] | 0.699 |
| MHQYSAIIPSGT [YJL182C C-terminal 12 aa] | 0.642 |
| PSFSNSQWRIIF [YOR169C C-terminal 12 aa] | 0.714 |
| RRKLKGRWFLSH [MRX14 C-terminal 12 aa] | 0.702 |
| DLESLFKEKLSI [ALA1 C-terminal 12 aa] | 0.711 |
| DHLHNLAQYWRT [VPS34 C-terminal 12 aa] | 0.697 |
| LMGAALAAVMLL [FIT3 C-terminal 12 aa] | 0.684 |
| QELLKLLENEKK [SLK19 C-terminal 12 aa] | 0.727 |
| IGWSVFAEWLCV [CYK3 C-terminal 12 aa] | 0.504 |
| DTFPRWEGIKSK [PAD1 C-terminal 12 aa] | 0.705 |
| CSGAAGKIYVCD [CDC40 C-terminal 12 aa] | 0.668 |
| DIIKQGVNDIIV [ARD1 C-terminal 12 aa] | 0.672 |
| TKAIEDAKKEMK [NUP2 C-terminal 12 aa] | 0.714 |
| VLESFLAPMVNQ [BET5 C-terminal 12 aa] | 0.688 |
| SFDDGRVKRQRT [IOC3 C-terminal 12 aa] | 0.69 |
| LSLIYSPHLYMS [YJL136W-A C-terminal 12 aa] | 0.643 |
| RLIGELGKLTED [YNL115C C-terminal 12 aa] | 0.683 |
| SDMYDSKRLLYV [YPL035C C-terminal 12 aa] | 0.652 |
| SGNYFFLDNTGI [RLI1 C-terminal 12 aa] | 0.718 |
| RSASNRHVDYFL [PPG1 C-terminal 12 aa] | 0.693 |
| LSNIITLCRIIV [PEX34 C-terminal 12 aa] | 0.465 |
| ERGMYRYYSLKA [LUG1 C-terminal 12 aa] | 0.623 |
| DGFSVPITTFQT [CDC15 C-terminal 12 aa] | 0.712 |
| TLVGTPGYRITL [RCE1 C-terminal 12 aa] | 0.717 |
| FSDWKNNNGPHK [IBA57 C-terminal 12 aa] | 0.701 |
| SAGSLEYTARYM [YML012C-A C-terminal 12 aa] | 0.693 |
| GAAVRLTGSDRV [RPN7 C-terminal 12 aa] | 0.685 |
| NSFELNDFFITS [HAC1 C-terminal 12 aa] | 0.714 |
| LYSFNQLEPLQT [GIC2 C-terminal 12 aa] | 0.703 |
| RDVTDWWESREI [CCZ1 C-terminal 12 aa] | 0.755 |
| GRNKIYILFNVL [YMR030W-A C-terminal 12 aa] | 0.647 |
